Target: AAGAB (UniProt Q6PD74)
Sequence (Q6PD74 whole entry, looked up): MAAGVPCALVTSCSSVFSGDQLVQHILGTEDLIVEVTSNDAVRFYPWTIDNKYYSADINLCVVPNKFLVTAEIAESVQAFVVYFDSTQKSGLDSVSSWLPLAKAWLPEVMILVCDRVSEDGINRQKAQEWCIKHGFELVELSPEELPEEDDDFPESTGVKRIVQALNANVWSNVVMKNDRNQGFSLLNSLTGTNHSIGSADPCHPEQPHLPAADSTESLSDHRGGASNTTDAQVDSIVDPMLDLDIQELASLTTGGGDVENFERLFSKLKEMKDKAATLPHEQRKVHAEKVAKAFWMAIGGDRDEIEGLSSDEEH
Assay: log2 fold change, soluble protein after heating vs DMSO (PISA); higher = thermal stabilisation; K562 cells, 10 uM, 30 min; active = over 0.2 and 3.5 SD of the protein, either way, in both replicates (recomputed)
Targets with a hit are over-represented here; the source holds about 7,900 in all. About 0.6% of all pairs of compound and target were hits.
measured.endpoint: log2 fold change
Give bare numbers.

CC(C)(C)Cn1c(N)nc2ccc(-c3[nH]c(C(C)(C)C)nc3-c3ccc(F)cc3)nc21	0.065
CC[C@@H]1C(=O)N(C)c2cnc(Nc3ccc(C(=O)NC4CCN(C)CC4)cc3OC)nc2N1C1CCCC1	-0.106
CCCc1cc(C)[nH]c(=O)c1CNC(=O)c1cc(-c2ccnc(N3CCN(C)CC3)c2)cc2c1cnn2C(C)C	-0.02
Cn1cc(-c2ccc3nnc(C(F)(F)c4ccc5ncccc5c4)n3n2)cn1	-0.121
NC(=O)Nc1cc(-c2cccc(F)c2)sc1C(=O)N[C@H]1CCCNC1	-0.071

Please turn your attention to the following entry.
q: Need log2 fold change, item `Cc1ccc(Sc2cncc3sc(C(N)=O)cc23)cc1`
a: -0.012
